Test: yeast display, Sf9 membrane polyspecificity reagent, FACS + sequencing; frameworks hold sequencing errors
assay-endpoint: polyreactivity (PSR sort gate)

Qu. Sample QVQLVETGGGLVQAGGSHSLSCAASVRTVSSYARGWCRQAPGTERELVARITWSGGTYYADSVKGRFTISRDNAKNTVYLQMNRLKPEDTSVYYCAKRSYYWEYYYWGQGTQVTVSS — what was its polyreactivity (PSR sort gate)?
Ans. high polyreactivity

Qu. Form field: reported polyreactivity (PSR sort gate) of QVQIVESGGGLVQAGGSLRLSCASSGSTFVSYDMGWYRQAPGKERELVADISWSGVSTYADSVKGRFTISRDNAMNTVYLQMNSLKPEDTAVYYCAKDSDLYQRGGYYWGQGTQVTVSS
Ans. low polyreactivity

Qu. Which polyreactivity (PSR sort gate) is listed for QVQLVESGGGLVQAGGSLRLSCAASGRTFHGYAMGWYRQAPGKERELVAAINASGGRTYYADSVKGRFTISRDNAKNTVYLQMNSLKPEDTAVYYCAVYSASFRYGLAYDYWGQGTQVTVSS ?
Ans. high polyreactivity

Qu. Look up polyreactivity (PSR sort gate) for this sequence: QVQLVESGGGLVQAGGSLRLRCAASGLTFRKYPMGWYRPAPGKERELVATISRNGGSTYSADSVKGRFTISSDNAKITVYLQMNSLKPEDTAVYYCAADYYTYDYAGYGYWGQGTQVTVSS
Ans. high polyreactivity

Qu. // polyreactivity (PSR sort gate) lookup, key: QVQLVESGGGLVQAGGSLRLSCAASGLTFKYYAMGWSRQAPGKESELVAAITSTGGRTYYADSVKGRFTISRDNAKNTVYLQMNSLKPEDTAVYYCAAYYVGSSKYDSWGQGTQVTVSS
Ans. low polyreactivity

Qu. Give the measured polyreactivity (PSR sort gate) of QVQLVESGGGLVQAGGSLRLSCAASGSTFAFNAMGWYRQAPGKERELVAGITRSGGRTYFADSVKGRFTISRDYAKNTVYLQMNSLKPEDTAVYYCAARRSGSKSGLFDYWGQGTQVTVSS .
Ans. low polyreactivity

***
Qu. Would you mind telling me what polyreactivity (PSR sort gate) value was observed for QVQLVESGGGLVQAGGSLRLSCAASGRTLGGYAMGWYRQAPGKERELVASITARGGSTYYADSVKGRFTISRDNAKNTVYLQMNSLKPEDTAVYYCATYFARGYNSWGQGTQVTVSS ?
Ans. high polyreactivity

Qu. Look up polyreactivity (PSR sort gate) for this sequence: QVQLVESGGGLVQAGGSLRLSCAAMGWYRQAPGKERELVATLTWSGGSTYYADSVKGRFTISRDNAKNPVYLQMNRLKPEDTAVYYCNARATLLSPANTIRGYDYWGQGTQVTVSS
Ans. low polyreactivity

Qu. Quick one: polyreactivity (PSR sort gate) for QVQLVESGGGLVQAGGSLRLTCAASGYTIIQYAMGWYRQAPGKERELVAGITWSGGSTYADSVKGRFTISRDNAKNTVYLQMNSLKPEATAVYYCAADDRDIYQYGTPYGSGIRYDYWGQGTQVTVSS ?
Ans. low polyreactivity

Qu. # input sequence: QVQRVESGGGLVQAGCSLRLSCAATGSTFRDYTMGGYRQEPGKERELVADITWRSGRTYYADSVMGRFTISRDYAMNTVYLQMNSLKPEDTAVYYCAAATRVKVNGLYSYYYRYDYWGLGTQVTVSS ; wanted: its polyreactivity (PSR sort gate)
Ans. high polyreactivity

Qu. Value lookup for polyreactivity (PSR sort gate); key = QVQLVESGGGLVQAGGSLRLSCAASGRIFYRNAMGWYRQAPGKERELVAAINWSGGSTYYADSVKGRFTISRDNAKNTVYLQMNSLKPEDTAVYYCATGYRQGEYDYWGQGTQVTVSS
Ans. low polyreactivity

Qu. Given the sequence QVQLVESGGGLVQAGGSLRLSCAASGGLFKVYGMRLYRQAPGQERELVAAISWTTGGTYYADSVKGRFTISRDNAKNTVYLQMNSLKPEDTAVYYCNAPTWYYSGVRYDYWGQGTQVTVSS , what is its reported polyreactivity (PSR sort gate)?
Ans. high polyreactivity

Qu. What value of measured polyreactivity (PSR sort gate) is listed for QVQLVESGGGLVQAGGSLRLSCAASGIIFITNAMGWYRQAPGKERDLVAVISFSGGGTYADSVKGRFTISRDNAKNTVYLQMNSLTPEDTAVYYCAKYWLSALTLEDDYWGQGTQVTVSS ?
Ans. low polyreactivity

Qu. Please look up its polyreactivity (PSR sort gate): QVQLEESGGGLVQAGGSLRLSCAASGSTFTPNAMGWYRQAPGKEREFVAGIDWNDGSTYYADSVKGRFTISRDNAKNTVYLQMNSLQPEDTEVYYCNAQWVSWWSLYDYWGQGTQVTVSS
Ans. high polyreactivity

Qu. Form field: reported polyreactivity (PSR sort gate) of QVQLVESGGALVQAGGSLRLSCAASGSTFRYYAMGWYRQAPGKERELVAAIRWSGDSTYYADSVKGRFTISRDNAKNTVYLQMNSLKPEDTAVYYCAADRQRSHRVGTKGHRVGYWGQGTQVSVSS
Ans. high polyreactivity

Qu. # get_value(readout='polyreactivity (PSR sort gate)', item= QVQLVESGGGLVQAGGSLRLSCAASGSTFRIYAMGWYRQQHGKESEFVAAITGGGTHYADSVKGRFTISRDNAKNTVYLQMNRLKPEDTAVYFCAAGYFIRTLSRYRYDYWGQGTQVTVSS )
Ans. high polyreactivity

Qu. Form field: reported polyreactivity (PSR sort gate) of QVQLEESGGGLVQAGGSLRLSCAASGSIFGAYALGWYRQAPGKERELVAAISSSVDRTYYADSVKGRFTISRDNAKNTVYLQMNSLKPEDTAVYYCAARWGTRDRTKYYYWGQGTQVTVSS
Ans. high polyreactivity

Qu. Name the reported polyreactivity (PSR sort gate) value associated with the sequence QVQLVESGGGLVQAGGSLRLSCAASGIIFQRNAMGWYRQAPGKERELVAAISASGGSTNYADSVKGRFTISRDNAKNTVYLQMNSLKPEDTAVYYCAVPARGTFLLRDGGRAEFDYWGQGTQVTVSS
Ans. low polyreactivity

Qu. // returns reported polyreactivity (PSR sort gate) for input QVQLVESGGGLVQAGGSLRLSCAASGGIFLVNDMGWYRPAPGKEWELVAAITSGGGTYYADSVKGRFTISRDNAKNTVYLQMNSLKPEDTAVYYCARDTYRQIVSNESYGYWGQGTQVTVSS
Ans. low polyreactivity

Qu. Quick one: polyreactivity (PSR sort gate) of QVQLVESGGGLVQAGGRLRLSCAASGLIFYKYAMGWYRQAPGKERELVAAISSRTGSTSYADSVKGRFTISRDNAKNTVYLQMNSLKPEDTAVYYCAARPRYNEYGYWGQGTQVTVSS ?
Ans. high polyreactivity

Qu. Need polyreactivity (PSR sort gate), item QVQLVESGGGLVQAGGSLRISCAASGSIFYGNAMGWYRQAPGKERELVAAISKRGGSTYYADSVKGRFTISRDNAKNTVYLQMNSLKPEDTAVYYCAKATAGHTEYYYWGQGTQVTVSS
Ans. high polyreactivity

====

Assay: yeast display, Sf9 membrane polyspecificity reagent, FACS + sequencing; frameworks hold sequencing errors
assay-endpoint: polyreactivity (PSR sort gate)

Qu. Can you look up the measured polyreactivity (PSR sort gate) of QVQLVESGGGLVQAGGSLRLSCAASGRIFGRYAMGWYRQAPGKERELVAAISGGGSTNYADSVKGRFTISRDNAKNTVYLQMNSLKPEDTAVYYCAADDDWSGVEFDYWGQGTQVTVSS for me?
Ans. low polyreactivity

Qu. What does the data say about its polyreactivity (PSR sort gate)? Entry: QVQLVESGGGLVQAGGSLRLSCAASGSTFHSNAMGWYRQAPGKERELVAAISQGGGRTYYADSVKGRFSISRDNAKNTVYLQMNSLKPEDTAVYYCNRRTRGLIDGGMDYWGQGTQGTVSS
Ans. low polyreactivity

Qu. polyreactivity (PSR sort gate) lookup needed for QVQLVESGGGLVQAGGSLRLSCAASGRIFWSYAMGWYRQAPGKERELVAAINSGGSTNYADSVKGRFTISRDNAKNTVYLQMNSLKPEDTAVYYCAAGFYYVYVWLGEYWVQGTQVTVSS , thanks.
Ans. low polyreactivity

====

Test: yeast display, Sf9 membrane polyspecificity reagent, FACS + sequencing; frameworks hold sequencing errors
assay-endpoint: polyreactivity (PSR sort gate)

Check out these entries, answers already filled in.
Qu. # polyreactivity (PSR sort gate) lookup, item QVQLVESGGRLVQAGGSLRLSCAASGFIFAVYAMGSYRQAPGKECELVAAISRSSGSTYYADSVKGRFTISRHNAKNTVYLQMNSLKPEDTAVYYCAAVFLYRGYAQYDYWGQGTQVTVSS
Ans. high polyreactivity

Qu. Consider the sequence shown here: QVQLVDSGGGLVQSGGILRLSCAASGRTFRYYAMGSYRQAPGKERELVAAISSGGSTNYADSVKGRFTISRDNAKNTVYLQMNSLKPEDTAVYYCAALWSGNKFKYWGQGSQVTVSS What is its recorded polyreactivity (PSR sort gate)?
Ans. low polyreactivity

Qu. # get_value(readout='polyreactivity (PSR sort gate)', item= QVQLVESGGGLGQAGGSLRLSCAASGRTFLFNAMGWYRQAPGKDRELVAAISSGGGSTYYADSVKGRFTISRDNAKNTDYLEMNSLKPEDTAVYFCAAYPYYYRYNYWGQGTQVTVSS )
Ans. high polyreactivity

Qu. Recorded polyreactivity (PSR sort gate) of QVQLVDSGGGLVQAGGSLRLSCAASGFILSRYTMGWYRQAPGKERELVATISSGGRTYYADSVKGRFTISRDNAKNTVYLQMNSLKPEDTAVYYCAAAYTYWRISGNRYLYDYWGQGTQVTVSS , please.
Ans. high polyreactivity

Continuing:
Qu. So what's the measured polyreactivity (PSR sort gate) for this one? QDQHVESVGGLVQAGGGLPLSCAASGRTFTYNAMGWYRQPPGKERELVAAITSGGTTNYADSVKGRFTISRDNAKNTVYLQMNSLKQEDTAVYYCAARRVYYSYRRYYYWGQGTQVTVSS
Ans. low polyreactivity
